- target.under.test: T1, cSNK:BSA conjugate (bovine, head-to-tail cyclized; conjugated to BSA carrier)
- T1 construct: also called BSA-cSNK
- procedure.summary: BLI 2:1 fit, site 1; 1.56 nM row
observed.property: koff (s⁻¹)
Your answer is read as s⁻¹, so omit the unit and give the number.

Solved cases (3 shown):
INSERT INTO measurements (binder, readout_unit, observed) VALUES
  ('murine monoclonal antibody 5E3 (antibody, V domains shown, mouse antibody of the 5E3 hybridoma; also called murine 5E3; m5E3) VH: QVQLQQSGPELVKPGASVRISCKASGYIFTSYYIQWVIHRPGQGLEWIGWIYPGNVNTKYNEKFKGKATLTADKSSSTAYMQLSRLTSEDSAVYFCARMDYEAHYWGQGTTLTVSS VL: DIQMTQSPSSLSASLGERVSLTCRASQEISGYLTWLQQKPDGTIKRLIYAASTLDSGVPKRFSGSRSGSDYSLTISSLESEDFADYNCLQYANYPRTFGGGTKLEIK', 's⁻¹', 0.000428),
  ('hu5E3-IgG1 (antibody, V domains shown, human IgG1/kappa; also called humanized 5E3 IgG1; IHA variant) VH: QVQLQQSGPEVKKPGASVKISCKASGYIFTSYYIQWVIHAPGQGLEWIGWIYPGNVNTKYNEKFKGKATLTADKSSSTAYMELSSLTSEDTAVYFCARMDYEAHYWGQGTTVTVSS VL: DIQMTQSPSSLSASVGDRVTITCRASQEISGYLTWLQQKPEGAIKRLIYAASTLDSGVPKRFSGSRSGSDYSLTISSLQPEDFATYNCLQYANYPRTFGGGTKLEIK', 's⁻¹', 0.000825),
  ('rehu5E3-IgG4 (antibody, V domains shown, human IgG4/kappa; also called IgG4 rehu version) VH: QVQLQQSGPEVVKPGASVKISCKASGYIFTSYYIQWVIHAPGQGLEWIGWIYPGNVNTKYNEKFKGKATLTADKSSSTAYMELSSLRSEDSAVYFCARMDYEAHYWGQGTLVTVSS VL: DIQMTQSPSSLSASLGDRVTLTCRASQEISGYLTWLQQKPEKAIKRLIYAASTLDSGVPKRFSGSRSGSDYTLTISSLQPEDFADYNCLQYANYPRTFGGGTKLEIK', 's⁻¹', 0.000386);

Note: attention shifts to another entry.
[Q] Given the binder hu5E3-IgG4 (antibody, V domains shown, human IgG4/kappa; also called humanized 5E3 IgG4) VH: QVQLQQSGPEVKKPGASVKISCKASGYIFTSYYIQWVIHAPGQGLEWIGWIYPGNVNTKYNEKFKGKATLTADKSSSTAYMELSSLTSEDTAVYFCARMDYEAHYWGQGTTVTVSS VL: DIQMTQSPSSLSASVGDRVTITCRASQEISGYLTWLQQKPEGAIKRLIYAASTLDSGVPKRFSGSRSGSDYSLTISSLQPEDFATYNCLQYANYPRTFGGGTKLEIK , what is its reported koff?
[A] 0.00055
